The measurements presented in this section are drawn from ChEMBL document CHEMBL1140437.

As an illustration, consider measured Ke for compounds on Delta-type opioid receptor (Homo sapiens) (UniProt P41143).
Sequence (P41143 whole entry): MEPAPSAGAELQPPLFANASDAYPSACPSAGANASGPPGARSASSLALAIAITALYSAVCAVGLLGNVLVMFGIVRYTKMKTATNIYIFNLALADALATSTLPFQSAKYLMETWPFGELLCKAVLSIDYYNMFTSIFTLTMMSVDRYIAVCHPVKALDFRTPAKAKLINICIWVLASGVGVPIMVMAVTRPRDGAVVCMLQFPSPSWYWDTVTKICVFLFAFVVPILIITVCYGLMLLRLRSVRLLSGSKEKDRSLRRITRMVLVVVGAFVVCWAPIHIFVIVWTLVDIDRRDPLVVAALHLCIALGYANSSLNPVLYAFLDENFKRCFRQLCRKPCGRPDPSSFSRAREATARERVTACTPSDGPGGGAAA
Enter your answer as a number in nM; do not include the unit.

{"COMPOUND": "C[C@]12CC[C@@H](NC(=O)CCN3CCc4ccccc4C3)C[C@@]1(c1cccc(O)c1)CCN(CCCc1ccccc1)C2 (relative stereo)", "Ke (nM)": 4.56}
{"COMPOUND": "C[C@]12CC[C@@H](NC(=O)c3cc4ccccc4s3)C[C@@]1(c1cccc(O)c1)CCN(CCCc1ccccc1)C2 (relative stereo)", "Ke (nM)": 1.01}

Supply Ke value. Item: C[C@]12CC[C@@H](NC(=O)CCN3CCCCC3)C[C@@]1(c1cccc(O)c1)CCN(CCCc1ccccc1)C2 (relative stereo)
12.3

====

As an illustration, consider measured Ke for molecules on Mu-type opioid receptor (Homo sapiens) (UniProt P35372).
Sequence (P35372 whole entry): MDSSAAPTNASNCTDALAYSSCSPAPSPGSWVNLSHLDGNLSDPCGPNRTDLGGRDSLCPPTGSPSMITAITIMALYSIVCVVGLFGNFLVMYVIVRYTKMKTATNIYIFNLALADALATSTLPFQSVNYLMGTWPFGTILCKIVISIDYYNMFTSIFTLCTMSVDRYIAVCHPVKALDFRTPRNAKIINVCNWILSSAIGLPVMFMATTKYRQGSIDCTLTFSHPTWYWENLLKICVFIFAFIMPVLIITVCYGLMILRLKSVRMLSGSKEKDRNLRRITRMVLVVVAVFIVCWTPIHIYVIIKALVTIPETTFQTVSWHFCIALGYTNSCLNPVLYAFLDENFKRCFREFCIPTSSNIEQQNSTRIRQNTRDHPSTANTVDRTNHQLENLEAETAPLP
Enter your answer as a number in nM; do not include the unit.

These solved cases illustrate the format of a correct answer.
{"MOLECULE": "C[C@]12CCCC[C@@]1(c1cccc(O)c1)CCN(CCc1ccccc1)C2 (relative stereo)", "OBSERVED_PROPERTY": "Ke", "UNIT_ANNOTATION": "nM", "RECORDED_VALUE": 0.84}
{"MOLECULE": "C[C@]12CC[C@@H](NC(=O)CCN3CCc4ccccc4C3)C[C@@]1(c1cccc(O)c1)CCN(CCCc1ccccc1)C2 (relative stereo)", "OBSERVED_PROPERTY": "Ke", "UNIT_ANNOTATION": "nM", "RECORDED_VALUE": 9.82}

Provide the reported Ke (system: Mu-type opioid receptor (Homo sapiens) (UniProt P35372)) for C[C@]12CC[C@@H](NC(=O)c3cc4ccccc4s3)C[C@@]1(c1cccc(O)c1)CCN(CCCc1ccccc1)C2 (relative stereo)
11.3

Provide the reported Ke (system: Mu-type opioid receptor (Homo sapiens) (UniProt P35372)) for C[C@]12CCCC[C@@]1(c1cccc(O)c1)CCN(CCCc1ccccc1)C2 (relative stereo)
0.8

Provide the reported Ke (system: Mu-type opioid receptor (Homo sapiens) (UniProt P35372)) for "CN1CC[C@]2(c3cccc(O)c3)CCCC[C@]2(C)C1"
99.4

Provide the reported Ke (system: Mu-type opioid receptor (Homo sapiens) (UniProt P35372)) for "C[C@]12CC[C@@H](NC(=O)C3(c4ccccc4)CCCC3)C[C@@]1(c1cccc(O)c1)CCN(CCCc1ccccc1)C2"
1.46

Provide the reported Ke (system: Mu-type opioid receptor (Homo sapiens) (UniProt P35372)) for C[C@]12CC[C@@H](NC(=O)CCN3CCCCC3)C[C@@]1(c1cccc(O)c1)CCN(CCCc1ccccc1)C2 (relative stereo)
41.7

Provide the reported Ke (system: Mu-type opioid receptor (Homo sapiens) (UniProt P35372)) for "C[C@H]1CN(CC[C@H](O)C2CCCCC2)CC[C@@]1(C)c1cccc(O)c1"
0.1
